- System: 171881-019-R-J1-PDC complex spheroid growth, % test/control
- Experiment: Anticancer human tumor 171881-019-R-J1-PDC patient-derived invasive breast carcinoma cell line growth inhibition [Asc]
- Protocol Conditions: second compound 3.16 µM; first compound 1 µM; stronger effect = lower value
- From the text: Multicellular complex tumor spheroid response to apoptosis pathway targeting inhibitors Alrizomadlin, Pelcitoclax, and Dasminapant in combination with a variety of drugs and investigational agents in selected tumor cell lines […] Compounds. […] If the clinical Cmax for an agent had not been determined, the highest concentration tested was 10 microM. […]
Listing of entries alongside the reported viability, T/C.
Supply the numeric figure in %, leaving out any unit text.

compound="CCN1CCN(Cc2ccc(Nc3ncc(F)c(-c4cc(F)c5nc(C)n(C(C)C)c5c4)n3)nc2)CC1 + Cc1c(S(C)(=O)=O)c(-c2cc(F)cc(N3CCN(c4ccc(NS(=O)(=O)c5ccc(NC(CCN6CCC(C(=O)OCCCP(=O)(O)O)CC6)CSc6ccccc6)c(S(=O)(=O)C(F)(F)F)c5)cc4)CC3)c2)c(-c2ccc(Cl)cc2)n1C(C)C" experimental_readout="viability, T/C" readout_value=185

Let's switch to this compound now.
stdin: viability, T/C lookup needed for O=C(c1cc(Cc2n[nH]c(=O)c3ccccc23)ccc1F)N1CCN(C(=O)C2CC2)CC1 + Cc1c(S(C)(=O)=O)c(-c2cc(F)cc(N3CCN(c4ccc(NS(=O)(=O)c5ccc(NC(CCN6CCC(C(=O)OCCCP(=O)(O)O)CC6)CSc6ccccc6)c(S(=O)(=O)C(F)(F)F)c5)cc4)CC3)c2)c(-c2ccc(Cl)cc2)n1C(C)C , thanks.
stdout: 164

---

Listing of entries alongside the reported viability, T/C.
- Tested on: 171881-019-R-J1-PDC complex spheroid growth, % test/control
- Experiment: Anticancer human tumor 171881-019-R-J1-PDC cell line growth inhibition [Asc];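 further: spheroids exposed to compounds for 7 days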
- Protocol Conditions: second compound 1 µM; first compound 0.00316 µM; stronger effect = lower value
Supply the numeric figure in %, leaving out any unit text.

Take a look at these entries with their results.
compound="O=C(c1ccc(F)c(F)c1Nc1ccc(I)cc1F)N1CC(O)([C@@H]2CCCCN2)C1 + Cc1c(S(C)(=O)=O)c(-c2cc(F)cc(N3CCN(c4ccc(NS(=O)(=O)c5ccc(NC(CCN6CCC(C(=O)OCCCP(=O)(O)O)CC6)CSc6ccccc6)c(S(=O)(=O)C(F)(F)F)c5)cc4)CC3)c2)c(-c2ccc(Cl)cc2)n1C(C)C" target_under_test="171881-019-R-J1-PDC complex spheroid growth, % test/control" unit_info=% readout_value=136
compound="Cn1ncnc1[C@H]1c2n[nH]c(=O)c3cc(F)cc(c23)N[C@@H]1c1ccc(F)cc1 + Cc1c(S(C)(=O)=O)c(-c2cc(F)cc(N3CCN(c4ccc(NS(=O)(=O)c5ccc(NC(CCN6CCC(C(=O)OCCCP(=O)(O)O)CC6)CSc6ccccc6)c(S(=O)(=O)C(F)(F)F)c5)cc4)CC3)c2)c(-c2ccc(Cl)cc2)n1C(C)C" target_under_test="171881-019-R-J1-PDC complex spheroid growth, % test/control" unit_info=% readout_value=123
compound="CNC(C)C(=O)NC1CN(S(=O)(=O)c2cccc(S(=O)(=O)N3CCC4CCC(C(=O)NC(c5ccccc5)c5ccccc5)N4C(=O)C(NC(=O)C(C)NC)C3)c2)CCC2CCC(C(=O)NC(c3ccccc3)c3ccccc3)N2C1=O (centres undefined) + Cc1c(S(C)(=O)=O)c(-c2cc(F)cc(N3CCN(c4ccc(NS(=O)(=O)c5ccc(NC(CCN6CCC(C(=O)OCCCP(=O)(O)O)CC6)CSc6ccccc6)c(S(=O)(=O)C(F)(F)F)c5)cc4)CC3)c2)c(-c2ccc(Cl)cc2)n1C(C)C" target_under_test="171881-019-R-J1-PDC complex spheroid growth, % test/control" unit_info=% readout_value=90.1

Let's switch to this compound now.
stdin: viability, T/C lookup needed for NC1CCC(NC2CC2c2ccccc2)CC1 (centres undefined) + CNC(C)C(=O)NC1CN(S(=O)(=O)c2cccc(S(=O)(=O)N3CCC4CCC(C(=O)NC(c5ccccc5)c5ccccc5)N4C(=O)C(NC(=O)C(C)NC)C3)c2)CCC2CCC(C(=O)NC(c3ccccc3)c3ccccc3)N2C1=O , thanks.
stdout: 87.9

---

Listing of entries alongside the reported viability, T/C.
- Test system: 171881-019-R-J1-PDC complex spheroid growth, % test/control
- Experiment: Anticancer human tumor 171881-019-R-J1-PDC cell line growth inhibition [Asc];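 further: spheroids exposed to compounds for 7 days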
- Protocol Conditions: second compound 0.01 µM; first compound 1 µM; stronger effect = lower value
Supply the numeric figure in %, leaving out any unit text.

compound="C=CC(=O)N1CCN(c2nc(=O)n(-c3c(C)ccnc3C(C)C)c3nc(-c4c(O)cccc4F)c(F)cc23)C(C)C1 (configuration not stated) + CNC(C)C(=O)NC1CN(S(=O)(=O)c2cccc(S(=O)(=O)N3CCC4CCC(C(=O)NC(c5ccccc5)c5ccccc5)N4C(=O)C(NC(=O)C(C)NC)C3)c2)CCC2CCC(C(=O)NC(c3ccccc3)c3ccccc3)N2C1=O" target_under_test="171881-019-R-J1-PDC complex spheroid growth, % test/control" readout_value=96

Let's switch to this compound now.
stdin: What value of viability, T/C on 171881-019-R-J1-PDC complex spheroid growth, % test/control does C#Cc1c(F)ccc2cc(O)cc(-c3ncc4c(N5CC6CCC(C5)N6)nc(OCC56CCCN5CC(F)C6)nc4c3F)c12 (configuration not stated) + CNC(C)C(=O)NC1CN(S(=O)(=O)c2cccc(S(=O)(=O)N3CCC4CCC(C(=O)NC(c5ccccc5)c5ccccc5)N4C(=O)C(NC(=O)C(C)NC)C3)c2)CCC2CCC(C(=O)NC(c3ccccc3)c3ccccc3)N2C1=O have?
stdout: 187

---

- System: 171881-019-R-J1-PDC complex spheroid growth, % test/control
- Experiment: Anticancer human tumor 171881-019-R-J1-PDC cell line growth inhibition [Asc]; active = viability on the fitted dose curve at most 10% of control; inactive = the rest;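 further: spheroids exposed to compounds for 7 days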
- Protocol Conditions: second compound 0.1 µM; first compound 10 µM
Assign a class; possible classes are active, inactive

These recorded examples may help you get a feel for the data.
molecule="C=C(F)C(=O)N1CCN(c2nc(OCC3CCCN3C)nc3c2CCN(c2cccc4cccc(Cl)c24)C3)CC1CC#N (stereo not drawn) + Cc1c(S(C)(=O)=O)c(-c2cc(F)cc(N3CCN(c4ccc(NS(=O)(=O)c5ccc(NC(CCN6CCC(C(=O)OCCCP(=O)(O)O)CC6)CSc6ccccc6)c(S(=O)(=O)C(F)(F)F)c5)cc4)CC3)c2)c(-c2ccc(Cl)cc2)n1C(C)C" group=active
molecule="O=C(c1cc(Cc2n[nH]c(=O)c3ccccc23)ccc1F)N1CCN(C(=O)C2CC2)CC1 + Cc1c(S(C)(=O)=O)c(-c2cc(F)cc(N3CCN(c4ccc(NS(=O)(=O)c5ccc(NC(CCN6CCC(C(=O)OCCCP(=O)(O)O)CC6)CSc6ccccc6)c(S(=O)(=O)C(F)(F)F)c5)cc4)CC3)c2)c(-c2ccc(Cl)cc2)n1C(C)C" group=inactive
molecule="O=C(c1cc(Cc2n[nH]c(=O)c3ccccc23)ccc1F)N1CCN(C(=O)C2CC2)CC1 + CNC(C)C(=O)NC1CN(S(=O)(=O)c2cccc(S(=O)(=O)N3CCC4CCC(C(=O)NC(c5ccccc5)c5ccccc5)N4C(=O)C(NC(=O)C(C)NC)C3)c2)CCC2CCC(C(=O)NC(c3ccccc3)c3ccccc3)N2C1=O" group=inactive
molecule="C=CC(=O)N1CCN(c2nc(=O)n(-c3c(C)ccnc3C(C)C)c3nc(-c4c(O)cccc4F)c(F)cc23)C(C)C1 (stereo not drawn) + Cc1c(S(C)(=O)=O)c(-c2cc(F)cc(N3CCN(c4ccc(NS(=O)(=O)c5ccc(NC(CCN6CCC(C(=O)OCCCP(=O)(O)O)CC6)CSc6ccccc6)c(S(=O)(=O)C(F)(F)F)c5)cc4)CC3)c2)c(-c2ccc(Cl)cc2)n1C(C)C" group=inactive
molecule="C#Cc1c(F)ccc2cc(O)cc(-c3ncc4c(N5CC6CCC(C5)N6)nc(OCC56CCCN5CC(F)C6)nc4c3F)c12 (stereo not drawn) + CNC(C)C(=O)NC1CN(S(=O)(=O)c2cccc(S(=O)(=O)N3CCC4CCC(C(=O)NC(c5ccccc5)c5ccccc5)N4C(=O)C(NC(=O)C(C)NC)C3)c2)CCC2CCC(C(=O)NC(c3ccccc3)c3ccccc3)N2C1=O" group=inactive
molecule="C=CC(=O)N1CCN(c2nc(=O)n(-c3c(C)ccnc3C(C)C)c3nc(-c4c(O)cccc4F)c(F)cc23)C(C)C1 (stereo not drawn) + CNC(C)C(=O)NC1CN(S(=O)(=O)c2cccc(S(=O)(=O)N3CCC4CCC(C(=O)NC(c5ccccc5)c5ccccc5)N4C(=O)C(NC(=O)C(C)NC)C3)c2)CCC2CCC(C(=O)NC(c3ccccc3)c3ccccc3)N2C1=O" group=inactive
molecule="C=C(F)C(=O)N1CCN(c2nc(OCC3CCCN3C)nc3c2CCN(c2cccc4cccc(Cl)c24)C3)CC1CC#N (stereo not drawn) + CNC(C)C(=O)NC1CN(S(=O)(=O)c2cccc(S(=O)(=O)N3CCC4CCC(C(=O)NC(c5ccccc5)c5ccccc5)N4C(=O)C(NC(=O)C(C)NC)C3)c2)CCC2CCC(C(=O)NC(c3ccccc3)c3ccccc3)N2C1=O" group=active

Here is another molecule to look at.
stdin: GET /call?item= C#Cc1c(F)ccc2cc(O)cc(-c3ncc4c(N5CC6CCC(C5)N6)nc(OCC56CCCN5CC(F)C6)nc4c3F)c12 (stereo not drawn) + Cc1c(S(C)(=O)=O)c(-c2cc(F)cc(N3CCN(c4ccc(NS(=O)(=O)c5ccc(NC(CCN6CCC(C(=O)OCCCP(=O)(O)O)CC6)CSc6ccccc6)c(S(=O)(=O)C(F)(F)F)c5)cc4)CC3)c2)c(-c2ccc(Cl)cc2)n1C(C)C returns the recorded outcome of this test.
stdout: inactive
